Where these numbers come from: paper PMC10671050

Test system: HSV-1, strain MacIntyre
Assay: Photodynamic inactivation of HSV-1 (virus treated with compound, plaque assay)
Format: cell-based, herpes simplex virus-1
Details: HSV-1 10^4 PFU/mL, blue light 465–480 nm, 30 mW/cm^2, 10 min, plaque assay; read-out: EC50 (µM) under Blue Light

[
  {
    "molecule": "CCCCc1ccc2c3cccc4c(-c5ccc(C(=O)O)s5)ccc(c5cccc1c25)c43 [Compound 15a]",
    "EC50 (µM)": 0.112
  }
]

----------
Test: Light-induced cytotoxicity (photocytotoxicity) in Vero cells
Assay type: cell-based, African Green Monkey
Settings: African green monkey, Vero cells; blue light 465–480 nm, 10 min, then 48 h; read-out: cell viability of Vero cells after irradiation

[
  {
    "molecule": "CCCCCCCCc1ccc2c3cccc4c(C#Cc5cn([C@@H]6O[C@H](CO)[C@@H](O)[C@@H]6O)c(=O)[nH]c5=O)ccc(c5cccc1c52)c43 [Compound 9b]",
    "viability at 48 h": "115 to 128%"
  },
  {
    "molecule": "CCCCCCCCCCCCc1ccc2c3cccc4c(C#Cc5cn([C@@H]6O[C@H](CO)[C@@H](O)[C@@H]6O)c(=O)[nH]c5=O)ccc(c5cccc1c52)c43 [Compound 9c]",
    "viability at 48 h": "115 to 128%"
  },
  {
    "molecule": "CCCCc1ccc2c3cccc4c(C#Cc5cn([C@@H]6O[C@H](CO)[C@@H](O)[C@@H]6O)c(=O)[nH]c5=O)ccc(c5cccc1c52)c43 [Compound 9a]",
    "viability at 48 h": "115 to 128%"
  }
]

----------
Assay type: physicochemical
Settings: methanol, DPBF trap, 450–470 nm, relative to riboflavin
Measured 1O2 Quantum Yield, listed per entry.
measure name: 1O2 Quantum Yield

[
  {
    "compound": "CCCCc1ccc2c3cccc4c(C#Cc5cn([C@H]6C[C@H](O)[C@@H](CO)O6)c(=O)[nH]c5=O)ccc(c5cccc1c52)c43 [Compound 11a]",
    "result": "23.6 ± 1.4%"
  },
  {
    "compound": "CCCCc1ccc2c3cccc4c(-c5ccc(C(=O)O)s5)ccc(c5cccc1c25)c43 [Compound 15a]",
    "result": "91.6 ± 0.2%"
  },
  {
    "compound": "CCCCCCCCc1ccc2c3cccc4c(C#Cc5cn([C@@H]6O[C@H](CO)[C@@H](O)[C@@H]6O)c(=O)[nH]c5=O)ccc(c5cccc1c52)c43",
    "result": "18.6 ± 2.3%"
  },
  {
    "compound": "CCCCCCCCCCCCc1ccc2c3cccc4c(-c5ccc(C(=O)O)s5)ccc(c5cccc1c25)c43 [Compound 15c]",
    "result": "79.8 ± 8.9%"
  },
  {
    "compound": "CCCCCCCCc1ccc2c3cccc4c(C#Cc5cn([C@H]6C[C@H](O)[C@@H](CO)O6)c(=O)[nH]c5=O)ccc(c5cccc1c52)c43 [Compound 11b]",
    "result": "21.0 ± 2.0%"
  },
  {
    "compound": "O=c1[nH]c(=O)n([C@H]2C[C@H](O)[C@@H](CO)O2)cc1C#Cc1ccc2c3cccc4cccc(c5cccc1c52)c43 [Compound 11, reference compound]",
    "result": "38.6 ± 0.8%"
  }
]

----------
Assay type: physicochemical
Conditions: methanol, DPBF trap, 450–470 nm, relative to riboflavin
Measured 1O2 Quantum Yield, listed per entry.
measure name: 1O2 Quantum Yield (%)

[
  {
    "molecule": "CCCCCCCCCCCCc1ccc2c3cccc4c(C#Cc5cn([C@@H]6O[C@H](CO)[C@@H](O)[C@@H]6O)c(=O)[nH]c5=O)ccc(c5cccc1c52)c43",
    "result units": "%",
    "measured number": 22.5
  },
  {
    "molecule": "CCCCc1ccc2c3cccc4c(C#Cc5cn([C@@H]6O[C@H](CO)[C@@H](O)[C@@H]6O)c(=O)[nH]c5=O)ccc(c5cccc1c52)c43",
    "result units": "%",
    "measured number": 31.9
  },
  {
    "molecule": "CCCCCCCCc1ccc2c3cccc4c(C#Cc5cn([C@@H]6O[C@H](CO)[C@@H](O)[C@H]6O)c(=O)[nH]c5=O)ccc(c5cccc1c52)c43 [Compound 10b]",
    "result units": "%",
    "measured number": 19.2
  }
]

----------
Experiment: Cytotoxicity assay in Vero cells (Cell Counting Kit-8)
Assay type: cell-based
Conditions: African green monkey, 48 h incubation, compared to controls (DMSO-treated cells)
measure name: viability at 48 h, 10 µM

[
  {
    "compound": "Oc1ccc(C#Cc2ccc3c4cccc5cccc(c6cccc2c63)c54)cc1Br [Compound 14, reference compound]",
    "measure name": "viability at 48 h, 10 µM",
    "result": "109 to 122%"
  },
  {
    "compound": "Oc1ccc(C#Cc2ccc3c4cccc5cccc(c6cccc2c63)c54)cc1 [Compound 12, reference compound]",
    "measure name": "viability at 48 h, 10 µM",
    "result": "109 to 122%"
  },
  {
    "compound": "Oc1cccc(C#Cc2ccc3c4cccc5cccc(c6cccc2c63)c54)c1 [Compound 13, reference compound]",
    "measure name": "viability at 48 h, 10 µM",
    "result": "109 to 122%"
  },
  {
    "compound": "CCCCc1ccc2c3cccc4c(C#Cc5cn([C@@H]6O[C@H](CO)[C@@H](O)[C@H]6O)c(=O)[nH]c5=O)ccc(c5cccc1c52)c43 [Compound 10a]",
    "measure name": "viability at 48 h, 10 µM",
    "result": "~80%"
  },
  {
    "compound": "CCCCCCCCc1ccc2c3cccc4c(C#Cc5cn([C@H]6C[C@H](O)[C@@H](CO)O6)c(=O)[nH]c5=O)ccc(c5cccc1c52)c43 [Compound 11b]",
    "measure name": "viability at 48 h, 10 µM",
    "result": "~120%"
  }
]

----------
Experiment: Solubilization in 15% DMSO in water
Details: aqueous with cosolvent or surfactant or cyclodextrin, kinetic from dmso stock
measure name: solubility (µM)

[
  {
    "molecule": "CCCCc1ccc2c3cccc4c(C#Cc5cn([C@@H]6O[C@H](CO)[C@@H](O)[C@H]6O)c(=O)[nH]c5=O)ccc(c5cccc1c52)c43 [Compound 10a]",
    "measured number": 0.02
  },
  {
    "molecule": "CCCCCCCCCCCCc1ccc2c3cccc4c(C#Cc5cn([C@@H]6O[C@H](CO)[C@@H](O)[C@H]6O)c(=O)[nH]c5=O)ccc(c5cccc1c52)c43 [Compound 10c]",
    "measured number": 0.24
  },
  {
    "molecule": "CCCCCCCCc1ccc2c3cccc4c(C#Cc5cn([C@@H]6O[C@H](CO)[C@@H](O)[C@@H]6O)c(=O)[nH]c5=O)ccc(c5cccc1c52)c43",
    "measured number": 0.38
  },
  {
    "molecule": "CCCCCCCCc1ccc2c3cccc4c(-c5ccc(C(=O)O)s5)ccc(c5cccc1c25)c43 [Compound 15b]",
    "measured number": 0.1
  },
  {
    "molecule": "CCCCc1ccc2c3cccc4c(C#Cc5cn([C@H]6C[C@H](O)[C@@H](CO)O6)c(=O)[nH]c5=O)ccc(c5cccc1c52)c43 [Compound 11a]",
    "measured number": 0.51
  },
  {
    "molecule": "CCCCc1ccc2c3cccc4c(C#Cc5cn([C@@H]6O[C@H](CO)[C@@H](O)[C@@H]6O)c(=O)[nH]c5=O)ccc(c5cccc1c52)c43",
    "measured number": 0.6
  },
  {
    "molecule": "CCCCc1ccc2c3cccc4c(-c5ccc(C(=O)O)s5)ccc(c5cccc1c25)c43 [Compound 15a]",
    "measured number": 0.11
  },
  {
    "molecule": "CCCCCCCCCCCCc1ccc2c3cccc4c(-c5ccc(C(=O)O)s5)ccc(c5cccc1c25)c43 [Compound 15c]",
    "measured number": 0.05
  },
  {
    "molecule": "CCCCCCCCCCCCc1ccc2c3cccc4c(C#Cc5cn([C@@H]6O[C@H](CO)[C@@H](O)[C@@H]6O)c(=O)[nH]c5=O)ccc(c5cccc1c52)c43",
    "measured number": 0.24
  },
  {
    "molecule": "CCCCCCCCc1ccc2c3cccc4c(C#Cc5cn([C@@H]6O[C@H](CO)[C@@H](O)[C@H]6O)c(=O)[nH]c5=O)ccc(c5cccc1c52)c43 [Compound 10b]",
    "measured number": 0.59
  },
  {
    "molecule": "CCCCCCCCc1ccc2c3cccc4c(C#Cc5cn([C@H]6C[C@H](O)[C@@H](CO)O6)c(=O)[nH]c5=O)ccc(c5cccc1c52)c43 [Compound 11b]",
    "measured number": 0.67
  }
]
